From: patent US20250144067A1

test system: NCI-H292 lung cancer cells; assay: FDA drug screening, complete media vs cholesterol-free media without statin (TABLE 1); type: cell-based, human; details: NCI-H292 cells, complete media
Where a name gives a salt, the structure may show the parent alone.
Please go through the items and note down their Complete.
Give bare numbers.

Look over these answered cases.
1) CNC(=O)c1ccc(N2C(=S)N(c3cnc(C#N)c(C(F)(F)F)c3)C(=O)C23CCC3)cc1F [Apalutamide] = 0.8274
2) CC(C)COCC(CN(Cc1ccccc1)c1ccccc1)N1CCCC1 (stereo not shown) [Bepridil (hydrochloride hydrate)] = 0.8961
3) NC(=O)c1ccn(-c2cnc(NC[C@]3(c4ncccc4F)C[C@H](F)C3)nc2)c1 = 0.8441

Next item in the queue.
Complete in this record for CC(C)(C)C(=O)Oc1ccc(S(=O)(=O)Nc2ccccc2C(=O)NCC(=O)O)cc1 [Sivelestat (sodium tetrahydrate)] : 0.9928

----------
system: NCI-H292 lung cancer cells; test: FDA drug screening, complete media vs cholesterol-free media with simvastatin (TABLE 2); assay type: cell-based, human; conditions: NCI-H292 cells, FDA library drug in cholesterol-free media with simvastatin 0.04 μM
Structures can show the parent of a compound that is named as a salt.
measurement_label: Cholesterol-free media + simvastatin (0.04 μM)

Look over these answered cases.
1) NC(=O)OC[C@H](N)Cc1ccccc1 [Solriamfetol] = 1.23
2) O=C1NC(c2ccccc2)(c2ccccc2)C(=O)N1COP(=O)(O)O [Fosphenytoin (disodium)] = 1.806
3) COc1cc2c(cc1OC)[C@H]1C[C@@H](OC(=O)[C@@H](N)C(C)C)[C@H](CC(C)C)CN1CC2 [Valbenazine] = 1.305

Quick batch: Cholesterol-free media + simvastatin (0.04 μM) for everything below.
1. COc1cc(C2Oc3cc([C@H]4Oc5cc(O)cc(O)c5C(=O)[C@@H]4O)ccc3OC2CO)ccc1O (stereo partly shown) [Silibinin]
2. O=C(O)CCCN1CCC(O[C@@H](c2ccc(Cl)cc2)c2ccccn2)CC1 [Bepotastine (besilate)]
3. CCCCN(CCCC)CCC(O)c1cc2c(Cl)cc(Cl)cc2c2cc(C(F)(F)F)ccc12 (stereo not shown) [Halofantrine hydrochloride]
4. CCOC(=O)C1=C(C)NC(C)=C(C(=O)OCC)C1c1ccccc1/C=C/C(=O)OC(C)(C)C [Lacidipine]
5. CC1(C)C(C=C(Cl)Cl)C1C(=O)OCc1cccc(Oc2ccccc2)c1 (stereo not shown) [Permethrin]
6. Clc1cccc(Cl)c1N=C1NCCN1 [Clonidine]
7. CC(C)=CCC[C@](C)(O)[C@H]1CC[C@]2(C)[C@@H]1[C@H](O)C[C@@H]1[C@@]3(C)CC[C@H](O[C@@H]4O[C@H](CO)[C@@H](O)[C@H](O)[C@H]4O[C@@H]4O[C@H](CO)[C@@H](O)[C@H](O)[C@H]4O)C(C)(C)[C@@H]3CC[C@]12C [20(S)-Ginsenoside Rg3]

Ans:
2.112
1.245
1.233
1.8
1.233
1.26
1.721

Quick batch: Cholesterol-free media + simvastatin (0.04 μM) for everything below.
1. O=C(CCCN1CC=C(n2c(=O)[nH]c3ccccc32)CC1)c1ccc(F)cc1 [Droperidol]
2. Nc1ncnc2c1ncn2[C@@H]1O[C@H](CO)[C@@H](O)[C@H]1O [Adenosine]
3. NC(=O)NC1NC(=O)NC1=O (stereo not shown) [Allantoin]
4. NC(=O)N/N=C/c1ccc([N+](=O)[O-])o1 [Nitrofurazone]
5. CCCCc1nc(Cl)c(CO)n1Cc1ccc(-c2ccccc2-c2nn[nH]n2)cc1 [Losartan]
6. O=C(OCCOCCO)c1ccccc1Nc1cccc(C(F)(F)F)c1 [Etofenamate]

Ans:
[1.065, 1.888, 1.146, 1.854, 1.37, 2.387]
